# Assayed system: recombinant Antigen 1 (recombinant Ab1 target; recombinant integrin αvβ6 antigen)
# Sequence (P06756 31-992, chain 1 of 2): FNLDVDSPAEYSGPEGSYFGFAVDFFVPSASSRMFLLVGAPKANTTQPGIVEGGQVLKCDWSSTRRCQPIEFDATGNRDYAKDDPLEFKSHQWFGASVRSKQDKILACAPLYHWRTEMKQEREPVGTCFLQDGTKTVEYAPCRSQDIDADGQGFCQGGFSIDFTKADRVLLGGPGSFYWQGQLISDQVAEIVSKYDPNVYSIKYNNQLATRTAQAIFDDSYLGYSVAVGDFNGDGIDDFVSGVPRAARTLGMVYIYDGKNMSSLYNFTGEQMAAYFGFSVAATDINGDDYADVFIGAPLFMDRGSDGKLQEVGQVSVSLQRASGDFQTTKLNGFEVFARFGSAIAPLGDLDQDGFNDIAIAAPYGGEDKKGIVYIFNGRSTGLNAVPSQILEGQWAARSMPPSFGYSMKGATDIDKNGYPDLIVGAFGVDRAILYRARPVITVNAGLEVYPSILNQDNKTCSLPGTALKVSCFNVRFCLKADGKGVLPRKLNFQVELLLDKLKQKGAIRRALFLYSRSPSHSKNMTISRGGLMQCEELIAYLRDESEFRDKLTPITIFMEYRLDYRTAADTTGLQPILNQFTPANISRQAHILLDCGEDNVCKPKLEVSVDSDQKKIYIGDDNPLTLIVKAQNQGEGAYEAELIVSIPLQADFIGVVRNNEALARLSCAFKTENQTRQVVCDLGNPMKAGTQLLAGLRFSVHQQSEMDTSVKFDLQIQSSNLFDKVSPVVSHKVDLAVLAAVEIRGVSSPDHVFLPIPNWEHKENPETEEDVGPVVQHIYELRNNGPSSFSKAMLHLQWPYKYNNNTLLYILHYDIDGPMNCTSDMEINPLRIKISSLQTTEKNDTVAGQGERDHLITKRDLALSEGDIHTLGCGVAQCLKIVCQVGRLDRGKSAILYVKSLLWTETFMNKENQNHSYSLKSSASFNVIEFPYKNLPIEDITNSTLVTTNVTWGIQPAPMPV
# Sequence (P18564 22-709, chain 2 of 2, further chain): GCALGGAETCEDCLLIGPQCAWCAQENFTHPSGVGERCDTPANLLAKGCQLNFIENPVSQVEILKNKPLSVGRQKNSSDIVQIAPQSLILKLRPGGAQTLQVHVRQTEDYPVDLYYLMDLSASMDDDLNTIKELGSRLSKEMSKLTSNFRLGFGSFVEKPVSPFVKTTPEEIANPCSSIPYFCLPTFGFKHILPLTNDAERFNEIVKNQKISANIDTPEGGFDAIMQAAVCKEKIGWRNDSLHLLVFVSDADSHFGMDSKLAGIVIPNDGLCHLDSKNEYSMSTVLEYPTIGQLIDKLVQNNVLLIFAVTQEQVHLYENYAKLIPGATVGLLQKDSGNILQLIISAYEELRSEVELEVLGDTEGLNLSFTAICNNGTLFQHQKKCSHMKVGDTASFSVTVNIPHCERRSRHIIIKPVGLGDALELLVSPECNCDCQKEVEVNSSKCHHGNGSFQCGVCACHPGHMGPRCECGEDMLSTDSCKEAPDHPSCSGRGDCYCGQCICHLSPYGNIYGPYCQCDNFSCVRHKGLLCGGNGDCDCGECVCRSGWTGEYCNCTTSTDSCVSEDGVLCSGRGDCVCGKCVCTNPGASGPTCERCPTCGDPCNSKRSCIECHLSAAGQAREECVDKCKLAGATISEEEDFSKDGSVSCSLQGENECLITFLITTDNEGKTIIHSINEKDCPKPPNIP
# Measurement protocol: saturation binding ELISA
// values below are reported Binding Bmax (OD450)
Give the quantity in OD450, number only.

Check out these entries, answers already filled in.
Binder	Binding Bmax (OD450)
Vel-IPV-Ab1 Coil 149 (antibody, part only; not given: Ab1 heavy and light chains, part only) heavy, part: QGASTSVDELQAEVDQLEDENYAIKTKIAQLRKKVEKLGSIPVSLRSG light, part: QGASTTVAQLEEKVKTLRAENYEAKSEVQRLEEQVAQLGSIPVSLRSG	1.1
Vel-IPV-Ab1 Coil 145 (antibody, part only; not given: Ab1 heavy and light chains, part only) heavy, part: QGASTSVDELQAEVDQLEDENYALKTKIAQLRKKVEKLGSIPVSLRSG light, part: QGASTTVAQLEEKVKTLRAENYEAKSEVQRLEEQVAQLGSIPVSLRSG	1.2
Vel-IPV-Ab1 Coil 106 (antibody, part only; not given: Ab1 heavy and light chains, part only) heavy, part: QGASTSVDELQAEVDQLEDENYAYKTKVAQLRKKVEKLGSIPVSLRSG light, part: QGASTTVAQLEEKVKTLRAENYEFKSEVQRLEEQVAQLGSIPVSLRSG	0.8
Vel-IPV-Ab1 Coil 142 (antibody, part only; not given: Ab1 heavy and light chains, part only) heavy, part: QGASTSVDELQAEVDQLEDENYALKTKKAQLRKKVEKLGSIPVSLRSG light, part: QGASTTVAQLEEKVKTLRAENYELKSEIQRLEEQVAQLGSIPVSLRSG	1.8
Vel-IPV-Ab1 Coil 122 (antibody, part only; not given: Ab1 heavy and light chains, part only) heavy, part: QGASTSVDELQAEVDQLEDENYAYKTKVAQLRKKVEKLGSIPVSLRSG light, part: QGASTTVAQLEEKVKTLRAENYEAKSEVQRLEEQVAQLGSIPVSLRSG	0.6

# input Look up Binding Bmax (OD450) for this binder: Vel-IPV-Ab1 Coil 129 (antibody, part only; not given: Ab1 heavy and light chains, part only) heavy, part: QGASTSVDELQAEVDQLEDENYASKTKVAQLRKKVEKLGSIPVSLRSG light, part: QGASTTVAQLEEKVKTLRAENYEYKSEVQRLEEQVAQLGSIPVSLRSG
# output 0.6

# input Look up Binding Bmax (OD450) for this binder: Vel-IPV-Ab1 Coil 115 (antibody, part only; not given: Ab1 heavy and light chains, part only) heavy, part: QGASTSVDELQAEVDQLEDENYAWKTKVAQLRKKVEKLGSIPVSLRSG light, part: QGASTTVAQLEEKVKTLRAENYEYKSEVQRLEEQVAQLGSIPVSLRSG
# output 1

# input Look up Binding Bmax (OD450) for this binder: Vel-IPV-Ab1 Coil 110 (antibody, part only; not given: Ab1 heavy and light chains, part only) heavy, part: QGASTSVDELQAEVDQLEDENYAGKTKVAQLRKKVEKLGSIPVSLRSG light, part: QGASTTVAQLEEKVKTLRAENYEWKSEVQRLEEQVAQLGSIPVSLRSG
# output 1

# input Look up Binding Bmax (OD450) for this binder: Vel-IPV-Ab1 Coil 151 (antibody, part only; not given: Ab1 heavy and light chains, part only) heavy, part: QGASTSVDELQAEVDQLEDENYALKTKLAQLRKKVEKLGSIPVSLRSG light, part: QGASTTVAQLEEKVKTLRAENYELKSELQRLEEQVAQLGSIPVSLRSG
# output 1.5
